Target: human CD3 expressed on cells (Jurkat cells; human T-cells of PBMC) (human, UniProt P09693 23-182; P20963 22-164)
Sequence (chain, as listed by the source, chain 1 of 4): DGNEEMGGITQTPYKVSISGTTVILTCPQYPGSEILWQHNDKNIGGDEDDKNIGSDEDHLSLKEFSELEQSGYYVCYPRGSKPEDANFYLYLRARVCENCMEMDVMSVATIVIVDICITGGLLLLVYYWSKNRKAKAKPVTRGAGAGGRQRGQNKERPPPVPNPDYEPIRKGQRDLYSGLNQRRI
Sequence (chain, as listed by the source, chain 2 of 4): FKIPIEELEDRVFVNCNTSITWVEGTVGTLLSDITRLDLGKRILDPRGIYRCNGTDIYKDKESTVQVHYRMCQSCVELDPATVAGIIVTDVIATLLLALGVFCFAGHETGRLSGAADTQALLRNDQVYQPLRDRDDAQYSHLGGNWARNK
Sequence (P09693 23-182, chain 3 of 4): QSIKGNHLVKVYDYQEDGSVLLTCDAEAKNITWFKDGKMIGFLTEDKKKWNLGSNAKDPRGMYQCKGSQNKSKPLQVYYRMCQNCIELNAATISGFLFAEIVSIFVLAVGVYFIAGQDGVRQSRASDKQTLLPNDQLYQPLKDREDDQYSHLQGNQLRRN
Sequence (P20963 22-164, chain 4 of 4): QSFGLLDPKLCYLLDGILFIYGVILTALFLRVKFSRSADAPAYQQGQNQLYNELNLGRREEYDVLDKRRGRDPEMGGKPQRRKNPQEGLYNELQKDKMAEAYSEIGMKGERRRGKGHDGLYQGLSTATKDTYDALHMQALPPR
Assay: cell-based or functional assay
readoutName: U937 Cytotoxicity Human T-cells (pM)
Express the result in pM but write the number alone.

Below, 4 binders whose answers are already recorded.
H1M2692N (antibody, mouse IgG1, V domains shown) VH: EVQLVESGGGLVQPGGSLRLSCAASGFSFDDYTMHWVRQPPGKGLEWVSGISWNSGSIGYADSVKGRFTISRDNAKNSLYLQMNSLRAGDTALYYCAKDNSGYGYYYYYGMDVWGQGTTVTVSS VL: EIVMTQSPATLSVSPGERATLSCRASQSVSSNLAWYQQKPGQAPRLLIYGASTRATGIPARFSGSGSGTEFTLTISSLQSEDFAVYYCQQYYNWPLTFGGGTKVEIK    359
H2M3547N (antibody, mouse IgG2, V domains shown, H2M: human variable regions, mouse IgG2 Fc) VH: EAQLVESGGGLVQPGRSLRLSCTTSGFTFDDYTMHWVRQAPGKGLEWISDISWNGGTKGYADSVKGRFTISRDNAKNSLYLQMDSLRGEDTALYYCVKDKSGYGHFYFGLDVWGQGTTVTVSS VL: DIQMTQSPSSLTASVGDRVTFTCRASQSISRHLSWYQQKPGKAPKLLIYAASSLESGVPSRFSGSGSGTDFTLTISSLHPEDFATYYCQQSYSNPPITFGQGTRLEIK    31.7
H2M2774N (antibody, mouse IgG2, V domains shown) VH: QVQLVESGGGVVQPGRSLRLSCVASGFTFRSYGMHWVRQAPGKGLQWVAMIYYDGKNKYYADSVRGRFTISRDNSKNTLYLQMNSLRAEDTAMYFCARGPGYNWLDPWGQGTLVTVSS VL: EIVMTQSPATLSVSPGERATLSCRASQRISSNLAWYQQKPGQAPRLLIYGASTRATGSPARFSGSGSGTEFTLTISSLQSEDVAVYYCQQHNNWPLTFGGGTKVEIK    2.46
H2M2862N (antibody, mouse IgG2, V domains shown) VH: QVQLVESGGGVVQPGRSLRLSCAASGFTFRSYGMHWVRQAPGKGLEWVAMIYYDGNNKKYADSVRGRFTISRDNSKNTLYLQMNSLRVEDTAVYFCARGPGYNWLDPWGQGTLVTVSS VL: EIVMTQSPATLSVSPGERATLSCRASQSVSRNLAWYQQKPGQAPRLLIYGASTRATDIPARFSGSGSGTEFILNISSLQSEDFALYYCQQYSNWPLTFGGGTEVEIK    7.66

Let's switch to this binder now.
Enquiry: Identify measured U937 Cytotoxicity Human T-cells corresponding to H2M2886N (antibody, mouse IgG2, V domains shown) VH: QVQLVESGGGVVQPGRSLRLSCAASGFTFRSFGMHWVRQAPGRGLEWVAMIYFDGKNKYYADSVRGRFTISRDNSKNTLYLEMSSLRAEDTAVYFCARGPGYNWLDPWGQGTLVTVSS VL: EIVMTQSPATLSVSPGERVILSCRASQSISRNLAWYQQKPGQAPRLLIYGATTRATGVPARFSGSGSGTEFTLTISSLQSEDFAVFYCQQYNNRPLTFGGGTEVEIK
Return: 8.06
